- test: RP-TLC lipophilicity on RP-18F254 plates (Soczewiński-Wachtmeister's and Ościk's equations)
- Type: physicochemical
- protocolConditions: Ościk's equation, methanol-water mobile phase, silica gel RP-18F254
readoutType: RMWO(m)

Guide cases for RMWO(m), answers given:
>  <compound>
COc1ccc2cc(CCC(C)=O)ccc2c1 [Nabumetone, nabumetone]

>  <readoutType>
RMWO(m)

>  <quantitativeReadout>
2.52

$$$$
>  <compound>
CCCCC1C(=O)N(c2ccccc2)N(c2ccccc2)C1=O [Phenylbutazone, phenylbutazone]

>  <readoutType>
RMWO(m)

>  <quantitativeReadout>
3.54

$$$$

a = CCOC(=O)C1=C(C)NC(C)=C(C(=O)OC)C1c1cccc(Cl)c1Cl (stereo not shown) [Felodipine, felodipine]
b = Cc1cccc(Nc2ccccc2C(=O)O)c1C [Mefenamic Acid, mefenamic acid]
**Query** Of a and b , whose reported RMWO(m) is numerically smaller? # answer = label of selected item
**Result** b

---

- test: RP-TLC lipophilicity on RP-18F254 plates (Soczewiński-Wachtmeister's and Ościk's equations)
- Assay type: physicochemical
- protocolConditions: φ0 = RMWS/S (Equation 6), acetone-water mobile phase
readoutType: φ0(a)

Guide cases for φ0(a), answers given:
>  <compound>
Cc1ncc([N+](=O)[O-])n1CC(O)CCl (centres unmarked)

>  <quantitativeReadout>
0.565

$$$$
>  <compound>
COC(=O)C1=C(C)NC(C)=C(C(=O)OC(C)C)C1c1cccc2nonc12 (centres unmarked)

>  <quantitativeReadout>
0.751

$$$$
>  <compound>
COc1ccc2cc(CCC(C)=O)ccc2c1

>  <quantitativeReadout>
0.787

$$$$

A = CCOC(=O)C1=C(C)NC(C)=C(C(=O)OCC)C1c1ccccc1/C=C/C(=O)OC(C)(C)C
B = Cc1ncc([N+](=O)[O-])n1CCO
**Query** Higher φ0(a): A or B ? # answer = label of selected item
**Result** A

---

- test: RP-TLC lipophilicity on RP-18F254 plates (Soczewiński-Wachtmeister's and Ościk's equations)
- Assay type: physicochemical
- protocolConditions: φ0 = RMWS/S (Equation 6), methanol-water mobile phase
readoutType: φ0(m)

>  <compound>
Cc1ncc([N+](=O)[O-])n1CC(O)CCl (centres unmarked)

>  <readoutType>
φ0(m)

>  <quantitativeReadout>
0.676

$$$$
>  <compound>
Cc1cccc(Nc2ccccc2C(=O)O)c1C

>  <readoutType>
φ0(m)

>  <quantitativeReadout>
0.865

$$$$
>  <compound>
CC(C(=O)O)c1cccc(C(=O)c2ccccc2)c1 (centres unmarked)

>  <readoutType>
φ0(m)

>  <quantitativeReadout>
0.687

$$$$
>  <compound>
CCOC(=O)C1=C(C)NC(C)=C(C(=O)OCC)C1c1ccccc1/C=C/C(=O)OC(C)(C)C

>  <readoutType>
φ0(m)

>  <quantitativeReadout>
0.937

$$$$
>  <compound>
Cc1ncc([N+](=O)[O-])n1CCO

>  <readoutType>
φ0(m)

>  <quantitativeReadout>
0.564

$$$$
>  <compound>
COC(=O)C1=C(C#N)NC(C)=C(C(=O)OC(C)C)C1c1cccc([N+](=O)[O-])c1 (centres unmarked)

>  <readoutType>
φ0(m)

>  <quantitativeReadout>
0.886

$$$$
>  <compound>
CCOC(=O)C1=C(C)NC(C)=C(C(=O)OC)C1c1cccc(Cl)c1Cl (centres unmarked)

>  <readoutType>
φ0(m)

>  <quantitativeReadout>
0.929

$$$$
>  <compound>
COc1ccc2c(c1)c(CC(=O)O)c(C)n2C(=O)c1ccc(Cl)cc1

>  <readoutType>
φ0(m)

>  <quantitativeReadout>
0.790

$$$$

---

- test: RP-TLC lipophilicity on RP-18F254 plates (Soczewiński-Wachtmeister's and Ościk's equations)
- Format: physicochemical
- protocolConditions: Soczewiński-Wachtmeister's equation, acetone-water mobile phase, silica gel RP-18F254
readoutType: RMWS(a)

Guide cases for RMWS(a), answers given:
>  <compound>
CCOC(=O)C1=C(C)NC(C)=C(C(=O)OCC)C1c1ccccc1/C=C/C(=O)OC(C)(C)C [Lacidipine, lacidipine]

>  <quantitativeReadout>
4.51

$$$$
>  <compound>
CCS(=O)(=O)CCn1c([N+](=O)[O-])cnc1C [Tinidazole, tinidazole]

>  <quantitativeReadout>
0.89

$$$$
>  <compound>
COc1ccc2c(c1)c(CC(=O)O)c(C)n2C(=O)c1ccc(Cl)cc1 [Indomethacin, indomethacin]

>  <quantitativeReadout>
2.57

$$$$
>  <compound>
Cc1cccc(Nc2ccccc2C(=O)O)c1C [Mefenamic Acid, mefenamic acid]

>  <quantitativeReadout>
2.61

$$$$
>  <compound>
CCOC(=O)C1=C(C)NC(C)=C(C(=O)OC)C1c1cccc(Cl)c1Cl (stereo not drawn) [Felodipine, felodipine]

>  <quantitativeReadout>
3.75

$$$$
>  <compound>
COC(=O)C1=C(C#N)NC(C)=C(C(=O)OC(C)C)C1c1cccc([N+](=O)[O-])c1 (stereo not drawn) [Nilvadipine, nilvadipine]

>  <quantitativeReadout>
4.07

$$$$
>  <compound>
Cc1ncc([N+](=O)[O-])n1CC(C)O (stereo not drawn) [Secnidazole, secnidazole]

>  <quantitativeReadout>
0.95

$$$$
>  <compound>
CC(C(=O)O)c1ccc2c(c1)[nH]c1ccc(Cl)cc12 (stereo not drawn) [Carprofen, carprofen]

>  <quantitativeReadout>
2.56

$$$$

1 = Cc1ncc([N+](=O)[O-])n1CCO [Metronidazole, metronidazole]
2 = COC(=O)C1=C(C)NC(C)=C(C(=O)OC(C)C)C1c1cccc2nonc12 (stereo not drawn) [Isradipine, isradipine]
3 = CC(C(=O)O)c1cccc(C(=O)c2ccccc2)c1 (stereo not drawn) [Ketoprofen, ketoprofen]
4 = CC(C(=O)O)c1ccc(-c2ccccc2)c(F)c1 (stereo not drawn) [Flurbiprofen, flurbiprofen]
**Query** Give the ascending ranking of the items by reported RMWS(a). // rank by listing labels in the order requested
**Result** 1, 3, 4, 2

---

- test: Experimental n-octanol-water partition coefficient (logPexp) from literature and databases
- Type: physicochemical
- protocolConditions: average of the differing literature logPexp values (± spread)
readoutType: logP

Guide cases for logP, answers given:
>  <compound>
Cc1ncc([N+](=O)[O-])n1CCO [Metronidazole, metronidazole]

>  <logP>
0.1

$$$$
>  <compound>
CC(C(=O)O)c1ccc(-c2ccccc2)c(F)c1 (centres unmarked) [Flurbiprofen, flurbiprofen]

>  <logP>
4

$$$$
>  <compound>
CCOC(=O)C1=C(C)NC(C)=C(C(=O)OC)C1c1cccc(Cl)c1Cl (centres unmarked) [Felodipine, felodipine]

>  <logP>
4.16

$$$$

A = Cc1ncc([N+](=O)[O-])n1CC(O)CCl (centres unmarked) [Ornidazole, ornidazole]
B = CCS(=O)(=O)CCn1c([N+](=O)[O-])cnc1C [Tinidazole, tinidazole]
**Query** Higher logP: A or B ? # answer = label of selected item
**Result** A
(A: 0.41, B: 0.18)

---

- test: RP-TLC lipophilicity on RP-18F254 plates (Soczewiński-Wachtmeister's and Ościk's equations)
- Type: physicochemical
- protocolConditions: Soczewiński-Wachtmeister's equation, methanol-water mobile phase, silica gel RP-18F254
readoutType: RMWS(m)

Guide cases for RMWS(m), answers given:
>  <molecule>
CC(C(=O)O)c1ccc2c(c1)[nH]c1ccc(Cl)cc12 (stereo not shown) [Carprofen, carprofen]

>  <readoutType>
RMWS(m)

>  <quantitativeReadout>
2.34

$$$$
>  <molecule>
COC(=O)C1=C(C#N)NC(C)=C(C(=O)OC(C)C)C1c1cccc([N+](=O)[O-])c1 (stereo not shown) [Nilvadipine, nilvadipine]

>  <readoutType>
RMWS(m)

>  <quantitativeReadout>
3.66

$$$$
>  <molecule>
COc1ccc2c(c1)c(CC(=O)O)c(C)n2C(=O)c1ccc(Cl)cc1 [Indomethacin, indomethacin]

>  <readoutType>
RMWS(m)

>  <quantitativeReadout>
2.19

$$$$
>  <molecule>
Cc1ncc([N+](=O)[O-])n1CC(C)O (stereo not shown) [Secnidazole, secnidazole]

>  <readoutType>
RMWS(m)

>  <quantitativeReadout>
1.26

$$$$
>  <molecule>
CC(C(=O)O)c1cccc(C(=O)c2ccccc2)c1 (stereo not shown) [Ketoprofen, ketoprofen]

>  <readoutType>
RMWS(m)

>  <quantitativeReadout>
1.47

$$$$

1 = CC(C(=O)O)c1ccc(-c2ccccc2)c(F)c1 (stereo not shown) [Flurbiprofen, flurbiprofen]
2 = COc1ccc2cc(CCC(C)=O)ccc2c1 [Nabumetone, nabumetone]
**Query** Higher RMWS(m): 1 or 2 ? # answer = label of selected item
**Result** 2

---

- test: RP-TLC lipophilicity on RP-18F254 plates (Soczewiński-Wachtmeister's and Ościk's equations)
- Assay type: physicochemical
- protocolConditions: Soczewiński-Wachtmeister's equation, methanol-water mobile phase, silica gel RP-18F254
- Method: The chromatographic analysis was carried on RP-18F254 plates (Art.1.05559, E. Merck, Darmstadt, Germany). The solutions of the investigated compounds were spotted separately onto chromatographic plates using precise micropipettes in a quantity of 5 µL each. […] Densitometric scanning was done using a TLC Scanner 3 with WinCATS 1.4.2 software manufactured by Camag (Muttenz, Switzerland) in the reflectance/absorbance mode. […]
readoutType: RMWS(m)

>  <compound>
COC(=O)C1=C(C)NC(C)=C(C(=O)OC(C)C)C1c1cccc2nonc12 (centres unmarked)

>  <RMWS(m)>
3.13

$$$$
>  <compound>
CCS(=O)(=O)CCn1c([N+](=O)[O-])cnc1C

>  <RMWS(m)>
1.17

$$$$
>  <compound>
CCCCC1C(=O)N(c2ccccc2)N(c2ccccc2)C1=O

>  <RMWS(m)>
1.84

$$$$
>  <compound>
CCOC(=O)C1=C(C)NC(C)=C(C(=O)OCC)C1c1ccccc1/C=C/C(=O)OC(C)(C)C

>  <RMWS(m)>
5.01

$$$$

A = CCOC(=O)C1=C(C)NC(C)=C(C(=O)OC)C1c1cccc(Cl)c1Cl (centres unmarked)
B = Cc1ncc([N+](=O)[O-])n1CCO
C = Cc1cccc(Nc2ccccc2C(=O)O)c1C
D = Cc1ncc([N+](=O)[O-])n1CC(O)CCl (centres unmarked)
**Query** Sequence the entries by RMWS(m), beginning with the highest number. // rank by listing labels in the order requested
**Result** A, C, D, B
